Assay info: amyloid nucleation score (Sup35N fusion, yeast selection) (log enrichment); library NNK3; higher = more nucleation; inactive = no reads after selection;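 further: zero at mode of non-aggregating sequences after 7 days selection at 30°C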
Measure: amyloid nucleation score

[
  {
    "Substance": "IINIRVIVSSLFPFLSSEFS",
    "Reported result": "inactive"
  },
  {
    "Substance": "LFNPMKTVYWHNLAIWHYDV",
    "Reported result": "inactive"
  },
  {
    "Substance": "VDDIPYRFKTIKTTG",
    "Reported result": "inactive"
  },
  {
    "Substance": "LVLRFTSIDFKLFRRHST",
    "Reported result": "inactive"
  },
  {
    "Substance": "CYPFLWYCPNVCTVVSFDK",
    "Reported result": 2.46
  }
]

If you can, please state the reported amyloid nucleation score value of NRIVTVLMFCWLEG .
inactive

Moving on to YSQVVW
inactive

What about FVSGYVVALCYPWQGCPGVC ?
1.97

Note, next up: WLFMIARTYR
inactive

Consider next the substance SNCFRILYTCAVAQLPPCMR in the same way.
inactive

Quick one: PYFFTDLICSFKIGAYEQGS
inactive

====

Assay info: amyloid nucleation score (Sup35N fusion, yeast selection) (log enrichment); library NNK1; higher = more nucleation; inactive = no reads after selection
Measure: amyloid nucleation score

Some substances with recorded amyloid nucleation score:
[
  {
    "Substance": "CFSRHAICT",
    "Reported result": -0.863
  },
  {
    "Substance": "SGCVQDCSLKRIFLMPDKAL",
    "Reported result": -1.03
  },
  {
    "Substance": "TVTDYKTYASLLFGTKTYAI",
    "Reported result": 2.17
  },
  {
    "Substance": "VFVSCIILRRYFYMFLVGPF",
    "Reported result": 0.752
  },
  {
    "Substance": "SGHFILHGFYFCYKKCALIY",
    "Reported result": 1.06
  },
  {
    "Substance": "LACCFIVSWFNGSGSLTSRS",
    "Reported result": 7.5
  },
  {
    "Substance": "RLRITVTISATAGMMRRLHR",
    "Reported result": 2.39
  },
  {
    "Substance": "GTATLSHTCKHTPLRDTRLV",
    "Reported result": -0.16
  },
  {
    "Substance": "QRIGHLVLDSVGRTSCVMGA",
    "Reported result": 0.386
  },
  {
    "Substance": "FKLAIVSIFCINSWYNESLR",
    "Reported result": 5.87
  }
]

Endpoint output: amyloid nucleation score of AVGYYCKSINRKHFIVEKLQ . Value?
-0.298

Same lookup for AQKCPALYRLMNMPEKEKVG , please.
0.18

And the next one, RYLVVQLRMGLYLFAFKDPD ?
-0.686

Same thing, different substance: RNFFDLCGTSKRRMRIS
-0.15

Also RLFVVEELESWGCFNWASIM , if possible.
-1.7

====

Assay info: amyloid nucleation score (Sup35N fusion, yeast selection) (log enrichment); library NNK2; higher = more nucleation; inactive = no reads after selection
Property: amyloid nucleation score; scope: individual substances
The answer should be a number; do not append a unit.

A selection of reference data follows.
[
  {
    "Substance": "KLAYIAMTVSITGFDPCAWD",
    "amyloid nucleation score": 2.55
  },
  {
    "Substance": "RNIGAR",
    "amyloid nucleation score": 0.635
  },
  {
    "Substance": "FFQQRCYVVFAIMTSSGADD",
    "amyloid nucleation score": 0.864
  },
  {
    "Substance": "VFSTTSLNV",
    "amyloid nucleation score": -0.647
  },
  {
    "Substance": "YHRSCFWDYLISDGLKQACH",
    "amyloid nucleation score": -1.51
  }
]

Requested read-out: amyloid nucleation score. Entry: MGEYFSMALYAPYTWVFMSV
-1.55

Note, next up: VRPFECGFTLPVWGG
0.923
